measured_on: Bub1 (Homo sapiens)
Sequence (O43683 whole entry): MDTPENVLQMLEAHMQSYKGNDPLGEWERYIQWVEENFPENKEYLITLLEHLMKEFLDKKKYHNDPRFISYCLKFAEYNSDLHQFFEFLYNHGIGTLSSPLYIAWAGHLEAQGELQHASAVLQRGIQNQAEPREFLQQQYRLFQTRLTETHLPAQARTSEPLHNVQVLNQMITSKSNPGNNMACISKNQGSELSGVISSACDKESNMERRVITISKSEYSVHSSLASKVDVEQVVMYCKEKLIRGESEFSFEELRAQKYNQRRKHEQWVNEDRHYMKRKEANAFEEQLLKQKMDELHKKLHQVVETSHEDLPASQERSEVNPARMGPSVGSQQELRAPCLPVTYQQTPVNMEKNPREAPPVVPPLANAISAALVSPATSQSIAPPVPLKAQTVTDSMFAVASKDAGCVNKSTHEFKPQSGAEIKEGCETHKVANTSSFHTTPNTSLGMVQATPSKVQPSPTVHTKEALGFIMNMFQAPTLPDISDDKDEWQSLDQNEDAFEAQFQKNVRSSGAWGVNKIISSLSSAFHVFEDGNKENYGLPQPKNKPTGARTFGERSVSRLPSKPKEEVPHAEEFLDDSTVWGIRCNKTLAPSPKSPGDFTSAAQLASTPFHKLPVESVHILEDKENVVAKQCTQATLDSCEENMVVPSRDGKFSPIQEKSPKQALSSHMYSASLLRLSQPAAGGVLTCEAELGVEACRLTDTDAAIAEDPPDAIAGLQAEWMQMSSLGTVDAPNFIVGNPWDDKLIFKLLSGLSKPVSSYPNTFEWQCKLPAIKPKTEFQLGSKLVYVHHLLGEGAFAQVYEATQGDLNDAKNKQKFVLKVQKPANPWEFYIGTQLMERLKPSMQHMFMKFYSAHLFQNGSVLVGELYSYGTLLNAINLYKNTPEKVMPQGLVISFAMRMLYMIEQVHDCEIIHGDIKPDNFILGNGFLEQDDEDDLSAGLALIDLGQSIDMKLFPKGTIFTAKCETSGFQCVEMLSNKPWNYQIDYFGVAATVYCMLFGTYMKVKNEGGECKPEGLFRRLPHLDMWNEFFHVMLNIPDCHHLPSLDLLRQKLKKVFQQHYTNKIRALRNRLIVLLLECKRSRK
assay_summary: Formation-Assay: phosphorylation status of histone 2A by inhibition of kinase activity of Bub1
Type: cell-based
study_conditions: Biological Assay 4.1: H2A Formation IC50, co-treatment with Nocodazole 1 μg/ml, 16 h
Description: Biological Assay 4.1: Formation-Assay Cell-Based Mechanistic Assay: Changes of Phosphorylation Status of Histone 2A by Inhibition of Kinase Activity of Bub1 This assay determines the suppression of histone 2A phosphorylation by a Bub1 kinase inhibitor during co-treatment with Nocodazole. 25000 cells (cells were ordered from ATCC) were seeded in 96 well plate for 5 h at 37° C. Cells were treated with Nocodazole (1 μg/ml) and varying concentrations (between 3 nM and 10 μM) of test compounds for 16 h. […]
value_kind: IC50 (µM)

compound="OCCOc1cc(F)c(Cn2nc(-c3nc(CN4CCOCC4)cc(Nc4ccncc4)n3)c3ccccc32)c(F)c1 [Example 2-6-38]" measured_on="Bub1 (Homo sapiens)" reading=2.3
compound="Cc1nccc(Nc2nc(-c3nn(Cc4c(F)cc(OCCO)cc4F)c4ccccc34)nc3c2CC(C)(C)C3)n1 [Example 2-6-22]" measured_on="Bub1 (Homo sapiens)" reading=0.18
compound="CCOc1cc(F)c(Cn2nc(-c3ncc(OCCO)c(Nc4ccncc4)n3)c3ccccc32)c(F)c1 [Example 3-1-1, reference compound]" measured_on="Bub1 (Homo sapiens)" reading=1.1
